Please respond with reported Her2 level for every item in the list.
# TEST SYSTEM: Receptor tyrosine-protein kinase erbB-2 (Homo sapiens) (UniProt P04626)
# Sequence (P04626 whole entry, looked up): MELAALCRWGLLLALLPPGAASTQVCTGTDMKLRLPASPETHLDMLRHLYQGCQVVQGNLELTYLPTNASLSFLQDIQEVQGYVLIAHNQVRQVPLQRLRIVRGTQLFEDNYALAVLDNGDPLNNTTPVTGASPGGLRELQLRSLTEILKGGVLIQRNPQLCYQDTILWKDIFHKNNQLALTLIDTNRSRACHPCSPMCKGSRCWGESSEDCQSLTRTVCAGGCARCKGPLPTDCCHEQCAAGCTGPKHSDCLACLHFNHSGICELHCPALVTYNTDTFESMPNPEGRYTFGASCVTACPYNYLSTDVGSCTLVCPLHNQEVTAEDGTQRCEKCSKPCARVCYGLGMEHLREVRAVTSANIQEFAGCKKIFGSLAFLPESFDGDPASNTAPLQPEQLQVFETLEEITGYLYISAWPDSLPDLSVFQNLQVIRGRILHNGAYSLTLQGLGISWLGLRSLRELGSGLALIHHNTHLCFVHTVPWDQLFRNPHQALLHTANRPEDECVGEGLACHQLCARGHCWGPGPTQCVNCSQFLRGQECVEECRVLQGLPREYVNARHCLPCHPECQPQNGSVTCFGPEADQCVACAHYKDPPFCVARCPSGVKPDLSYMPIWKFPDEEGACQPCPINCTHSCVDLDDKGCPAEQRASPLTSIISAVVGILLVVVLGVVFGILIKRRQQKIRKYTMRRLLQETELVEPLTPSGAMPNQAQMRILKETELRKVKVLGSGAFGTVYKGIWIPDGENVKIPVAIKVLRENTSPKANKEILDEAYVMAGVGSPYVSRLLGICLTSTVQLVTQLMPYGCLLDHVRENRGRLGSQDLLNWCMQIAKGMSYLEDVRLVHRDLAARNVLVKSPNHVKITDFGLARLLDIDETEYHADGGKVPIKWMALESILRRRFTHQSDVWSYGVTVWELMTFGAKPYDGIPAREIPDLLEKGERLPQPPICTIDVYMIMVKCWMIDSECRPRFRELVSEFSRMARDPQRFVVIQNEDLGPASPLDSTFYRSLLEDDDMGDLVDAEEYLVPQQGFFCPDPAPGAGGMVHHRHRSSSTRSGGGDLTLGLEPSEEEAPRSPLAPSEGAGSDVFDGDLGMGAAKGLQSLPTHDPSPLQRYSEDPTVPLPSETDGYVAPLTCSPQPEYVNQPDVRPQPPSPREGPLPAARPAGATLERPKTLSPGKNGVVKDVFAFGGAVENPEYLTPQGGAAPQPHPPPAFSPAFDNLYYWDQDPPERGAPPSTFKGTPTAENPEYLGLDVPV
# EXPERIMENTAL PROTOCOL: Her2 expression decrease, cell viability multiplex – SKBR3 breast tumor cells, AlphaScreen, ATP viability, primary screen (AID 461);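 also: lower value means less Her2 protein in the cells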
# REPORTED CONDITIONS: 18-24 h, at 10 µM, hits give low values
Respond numerically; units are % and should not be typed.

Suppose we examine the compound Cc1cc(C)c(NC(=O)CSc2nc3c(c(=O)n2C)SC(C)C3)c(C)c1 (centres undefined) ; what Her2 level value has been reported?
118

Also CC(=O)N(c1ccc(Br)cc1)C1C=CS(=O)(=O)C1 (centres undefined) ?
96

Also `Cc1ccnc(SCCn2c(N3CCN(Cc4ccccc4)CC3)nc3c2c(=O)[nH]c(=O)n3C)n1` ?
93.5

Also Cc1c(C(=O)OC2CCC(C)CC2)[nH]c2c1C(=O)CCC2 (centres undefined) ?
78

Also CC1CCCN(C(=O)CN2C(=O)c3ccccc3C2=O)C1 (centres undefined) ?
104

Also `CCOC(=O)c1nc2sc3c(c2c(=O)[nH]1)CCCC3` ?
100

Also `CCOC(=O)c1cc2c(=O)n3ccccc3nc2n(CCCOC)c1=NC(=O)C(C)(C)C` ?
92

Also CCCSc1nnc(N2C(=O)CC(c3ccsc3)C3=C2CCCC3=O)s1 (centres undefined) ?
100

Also `Cc1cc(C)cc(NC(=O)CSc2nnc(Cc3cccn3C)n2-c2ccc(F)cc2)c1` ?
84
